Target: Tyrosine-protein kinase BTK (Homo sapiens); further: in the data inactive means no Kd found up to 30 µM
Sequence (Q06187 whole entry): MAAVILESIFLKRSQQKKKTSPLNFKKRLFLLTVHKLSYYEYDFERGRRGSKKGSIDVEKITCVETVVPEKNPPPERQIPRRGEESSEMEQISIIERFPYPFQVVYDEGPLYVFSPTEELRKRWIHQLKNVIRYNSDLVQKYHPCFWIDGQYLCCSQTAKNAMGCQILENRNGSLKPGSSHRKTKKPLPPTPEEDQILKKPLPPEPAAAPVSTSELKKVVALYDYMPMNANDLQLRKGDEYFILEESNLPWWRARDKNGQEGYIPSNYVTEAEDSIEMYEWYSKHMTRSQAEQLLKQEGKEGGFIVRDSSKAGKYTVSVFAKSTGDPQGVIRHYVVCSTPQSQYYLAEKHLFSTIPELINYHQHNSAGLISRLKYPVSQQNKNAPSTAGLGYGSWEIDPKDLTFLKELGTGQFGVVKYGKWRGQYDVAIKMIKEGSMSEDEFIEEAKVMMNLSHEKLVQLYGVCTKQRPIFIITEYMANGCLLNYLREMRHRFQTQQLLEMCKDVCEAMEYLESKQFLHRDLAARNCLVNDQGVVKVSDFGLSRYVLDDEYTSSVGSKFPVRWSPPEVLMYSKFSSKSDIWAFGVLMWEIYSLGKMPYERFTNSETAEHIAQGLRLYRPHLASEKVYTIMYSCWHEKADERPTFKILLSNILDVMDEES
The source made the active and inactive calls.
Log the outcome using a class from Y = active, N = inactive

Would you please look over these solved cases?
* COc1ccc(-c2ccc3ncc4c(c3c2)n(-c2ccc(N3CCNCC3)c(C(F)(F)F)c2)c(=O)n4C)cn1 [BGT-226 FREE BASE] | N
* Cn1cc(-c2[nH]c3cc(NC(=O)[C@H](N)C4CCCCC4)cc4c3c2C=NNC4=O)cn1 | Y
* CCc1nc(C(N)=O)c(Nc2ccc(N3CCC(N4CCN(C)CC4)CC3)c(OC)c2)nc1NC1CCOCC1 [GILTERITINIB] | N
* NC(=O)c1ccc(N(C(N)=O)c2c(F)cccc2F)nc1-c1ccc(F)cc1F [VX-702] | N

Please share the test call associated with CCN1CCN(Cc2ccc(Nc3ncc(F)c(-c4cc(F)c5nc(C)n(C(C)C)c5c4)n3)nc2)CC1 [ABEMACICLIB] . N

I would be grateful if you could indicate the recorded call for COc1cc2ncnc3c2cc1OCCCCCN(C)Cc1ccc(Br)cc1N3 [JNJ-26483327] . N

Identify the outcome logged in this assay for the molecule shown: Cc1cc(C(=O)Nc2cc(Oc3ccc4nc(NC(=O)C5CC5)cn4n3)ccc2C)n(C)n1 [TAK-593] N

For Cc1cc(Nc2nc(N[C@@H](C)c3ncc(F)cn3)ncc2Cl)n[nH]1 [AZD-1480] , which call appears in the assay record? N
